Molecular target: tetrameric S100B (human, recombinant) (human, UniProt P04271)
Sequence (P04271 whole entry): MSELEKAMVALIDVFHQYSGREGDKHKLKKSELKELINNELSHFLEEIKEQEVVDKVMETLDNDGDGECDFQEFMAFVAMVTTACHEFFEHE
measurement label: binding result

>>> value_measured("Nb2 (VHH) VHH: QVQLVESGGGWVQAGGSLRLSCTASGSGFGIFAINWFRQAPGKERELVASLSSIGSPKYAESVKGRFTISRDNAKNTVYLQMNSLKPEDTAVYYCNYLNRWGQGTQVTVSS")
"binds"
>>> value_measured("Nb5 (VHH) VHH: QVQLVESGGGLVQAGGSQRLSCTASGRIFSINDMGWYRQAPGDQRELVAVITSGGATNYTDSVKGRFTISRDDAKNTVYLQMNSLKPEDTAVYYCNADLRTSLKWPPVFHRYWGQGTQVTVSS")
"binds"
